Target: Nanoluciferase-BRD9 fusion protein (Homo sapiens (Human))
Sequence (Q9H8M2 whole entry, the tested form may be a part): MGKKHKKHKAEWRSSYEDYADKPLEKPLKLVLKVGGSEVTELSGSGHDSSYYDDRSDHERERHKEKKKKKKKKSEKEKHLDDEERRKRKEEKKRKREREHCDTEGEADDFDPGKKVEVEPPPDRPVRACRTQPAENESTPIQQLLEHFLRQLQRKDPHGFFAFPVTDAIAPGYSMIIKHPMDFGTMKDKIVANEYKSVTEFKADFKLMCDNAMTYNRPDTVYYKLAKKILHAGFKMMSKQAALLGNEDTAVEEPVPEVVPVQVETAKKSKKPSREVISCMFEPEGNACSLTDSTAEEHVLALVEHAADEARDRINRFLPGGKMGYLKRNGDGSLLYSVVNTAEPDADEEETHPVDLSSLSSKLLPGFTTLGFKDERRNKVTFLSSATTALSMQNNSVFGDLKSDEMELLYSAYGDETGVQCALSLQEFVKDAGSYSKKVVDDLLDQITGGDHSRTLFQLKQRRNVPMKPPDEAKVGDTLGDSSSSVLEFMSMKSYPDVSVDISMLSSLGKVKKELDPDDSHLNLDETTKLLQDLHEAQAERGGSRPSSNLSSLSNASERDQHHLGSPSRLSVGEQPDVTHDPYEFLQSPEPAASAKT
Assay: SYO1 BRD9 NanoLuc degradation assay
Assay type: cell-based
Settings: Table 5A; SYO-1 cells expressing 3×FLAG-NLuc-BRD9, 6 hours
Description: Procedure: A stable SYO-1 cell line expressing 3×FLAG-NLuc-BRD9 was generated. On day 0 cells were seeded in 30 μL media into each well of 384-well cell culture plates. The seeding density was 8000 cells/well. […] Nanoluciferase activity was measured by adding 15 μL of freshly prepared Nano-Glo Luciferase Assay Reagent (Promega N1130), shaking the plates for 10 minutes and reading the bioluminescence using an EnVision reader. […]
pIC50: −log10 of the molar value.
Below: a set of entries, each annotated with reported pIC50.

Solved cases (5 shown):
compound	pIC50
COc1cc(-c2cn(C)c(=O)c3cnccc23)cc(OC)c1CN1CCC(OC2CCN(C(=O)CCOCCOc3ccc4c(c3)C(=O)N(C3CCC(=O)NC3=O)C4=O)C2)CC1 (centres unmarked)	> 8.00
COc1cc(-c2cn(C)c(=O)c3cnccc23)cc(OC)c1CN1CCC2(C[C@H]2NC(=O)CCOCCOc2ccc3c(c2)C(=O)N(C2CCC(=O)NC2=O)C3=O)C1 (some centres unmarked)	6.00 to 7.00
COc1cc(-c2cn(C)c(=O)c3cnccc23)cc(OC)c1CN1CC2CN(C(=O)CCOCCOc3ccc4c(c3)C(=O)N(C3CCC(=O)NC3=O)C4=O)CCC21 (centres unmarked)	> 8.00
COc1cc(-c2cn(C)c(=O)c3cnccc23)cc(OC)c1CN1CC2(C1)CN(C(=O)CCCCOc1cccc3c1C(=O)N(C1CCC(=O)NC1=O)C3=O)C2 (centres unmarked)	> 8.00
COc1cc(-c2cn(C)c(=O)c3cnccc23)cc(OC)c1CN(C)CCCOCCN1CCN(c2ccc3c(c2)C(=O)N(C2CCC(=O)NC2=O)C3=O)CC1 (centres unmarked)	7.00 to 8.00

Let us move to another entry and its pIC50.
Which value of pIC50 has been reported for COc1cc(-c2cn(C)c(=O)c3cnccc23)cc(OC)c1CN1CCC2CCN(C(=O)CCOCCOc3cccc4c3C(=O)N(C3CCC(=O)NC3=O)C4=O)CC21 (centres unmarked) in the records?
7.00 to 8.00
